# ASSAY_TARGET: hKv3.1b (Homo sapiens)
# Construct: expressed in transfected cells
# Sequence (P48547 1-585 isoform P48547-2): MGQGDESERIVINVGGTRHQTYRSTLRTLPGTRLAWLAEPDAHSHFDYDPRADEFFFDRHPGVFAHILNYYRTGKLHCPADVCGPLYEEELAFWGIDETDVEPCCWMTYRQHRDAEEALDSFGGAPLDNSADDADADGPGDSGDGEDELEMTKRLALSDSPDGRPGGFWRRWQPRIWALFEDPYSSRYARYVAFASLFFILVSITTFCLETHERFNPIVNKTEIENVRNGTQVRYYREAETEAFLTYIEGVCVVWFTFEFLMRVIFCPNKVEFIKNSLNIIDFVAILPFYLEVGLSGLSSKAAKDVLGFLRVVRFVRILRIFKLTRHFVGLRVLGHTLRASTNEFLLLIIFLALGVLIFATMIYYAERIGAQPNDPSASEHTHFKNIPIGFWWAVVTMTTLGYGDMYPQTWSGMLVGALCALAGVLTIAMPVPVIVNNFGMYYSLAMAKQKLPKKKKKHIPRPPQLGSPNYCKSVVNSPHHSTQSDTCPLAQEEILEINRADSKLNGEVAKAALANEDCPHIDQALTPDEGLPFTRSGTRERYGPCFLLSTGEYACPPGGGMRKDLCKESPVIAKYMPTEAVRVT
# METHOD_NOTES: Automated whole-cell patch-clamp (QPatch-16x) on HEK-293 cells stably expressing hKv3.1b: shift of voltage threshold for channel activation
# Type: cell-based
# CONDITION_SUMMARY: concentration needed to shift the threshold 5 mV, read out from fitted concentration response curve; HEK-293 hKv3.1b
MEASURED_PARAMETER: ECdelta5mV (nM)

1) Cc1ccc(S(=O)(=O)n2ccc(C(=O)NCc3ncon3)n2)cc1: 4900
2) Cc1ccc(S(=O)(=O)n2ccc(C(=O)NCc3ccno3)n2)cc1: 1800
3) Cc1ccc(S(=O)(=O)n2ccc(C(=O)NCc3cocn3)n2)cc1: 2000
4) Cc1ccc(S(=O)(=O)n2ccc(C(=O)NCc3nccs3)n2)cc1: 3000

(A) COc1ccc(S(=O)(=O)n2ccc(C(=O)NCc3cnccn3)n2)cc1C
(B) Cc1cnc(CNC(=O)c2ccn(S(=O)(=O)c3ccccc3Cl)n2)cn1
(C) Cc1cnc(CNC(=O)c2ccn(S(=O)(=O)c3cc(C)c(F)c(C)c3)n2)cn1
(D) COc1ccc(S(=O)(=O)n2ccc(C(=O)NCc3cnn(C)c3)n2)cc1
Sort these compounds on ECdelta5mV so the largest reading comes first. # list labels per requested ordering B, C, A, D

(I) Cc1ccc(S(=O)(=O)n2ccc(C(=O)NCc3cnc(C)cn3)n2)c(F)c1
(II) Cc1cc(CNC(=O)c2ccn(S(=O)(=O)c3ccc(F)cc3)n2)on1
Of the two listed items, I and II , which carries the larger ECdelta5mV figure? // caller expects the label of the chosen entry II
(II: 4100 nM, I: 1500 nM)
